Kindly state Ratio Ki for each of the entries shown.
- Experiment Notes: Selectivity ratio of Ki for rat nNOS to Ki for mouse iNOS

Indicate the recorded Ratio Ki value for this molecule: Cc1cc(N)nc(C[C@@H]2CNC[C@@H]2OCCNC2CC2c2cccc(Cl)c2)c1 (mixture of isomers)
12

Assign Ratio Ki to the following record: Cc1cc(N)nc(C[C@@H]2CNC[C@@H]2OCCNC2CC2c2cccc(F)c2)c1 (mixture of isomers)
94

Input Cc1cc(N)nc(C[C@@H]2CNC[C@@H]2OCCNC(C)Cc2cccc(F)c2)c1 (mixture of isomers) , output reported Ratio Ki.
12

Please indicate Ratio Ki recorded for Cc1cc(N)nc(C[C@@H]2CNC[C@@H]2OCCN[C@H](C)Cc2cccc(F)c2)c1
110

These measurements were taken from ChEMBL document CHEMBL2331549.
